# protein stability index values compiled below
B1: CDC25A (parent)
chain: QLIDPDENKENEAFEFKKPVRPVS

- Variants of: B1
- Protocol: protein stability index of a GFP-peptide fusion (GPS, HEK-293T) (PSI 1-6); higher = more stable;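 note: lentivirally expressed fusions sorted by FACS into six bins by GFP to DsRed ratio, PSI derived from sequencing read proportions per bin multiplied by bin number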
- Measurement setup: c terminus: a fixed tail appended
Observation type: protein stability index

Mutation code: K18I
Reading: 3.97
//
Mutation code: V20E
Reading: 4.04
//
Mutation code: E7D
Reading: 3.97
//
Mutation code: N8M
Reading: 4.09
//
Mutation code: K17Q
Reading: 4.03
